Below: a set of entries, each annotated with reported TGI.
system: ACHN renal; assay: NCI tumour cell line growth inhibition, 48 h
ASSAY ENDPOINT: TGI

1) O=[N+]([O-])c1ccc(NC(=S)Nc2ccccn2)cc1 = > 100 µM
2) Oc1c(N=Nc2ccccc2)c2ccccc2c2ccc3ccccc3c12 = > 100 µM
3) CC1=NN(C(=O)c2ccc(Cl)cc2)C(=O)/C1=C/c1ccc(O)cc1 = > 100 µM
4) CC1SC(=O)SC1C (stereo unspecified) = > 100 µM
5) CS(=O)(=O)Nc1cc(-c2ccc3ncnc(Nc4ccc5c(cnn5Cc5ccccc5F)c4)c3c2)cnc1Cl = > 52.9 µM
6) O=C1NC(=NC2CCCCC2)C2(CCN(CCCC3(c4ccc(F)cc4)OCCO3)CC2)N1c1ccccc1 = 28.4 µM
7) COc1ccc2c(c1)CC1c3c(cc4c(c3-2)OCO4)CCN1C (stereo unspecified) = 36.1 µM
8) OC(CNc1ccnc2cc(Cl)ccc12)CNC1CCCCC1 (stereo unspecified) = 19.4 µM
9) Cc1ccc(/C=C2\CCCC\C2=N\O)cc1 = > 100 µM
10) O=C(NCC(C(=O)OCc1ccccc1)C(=O)OCc1ccccc1)OCc1ccccc1 = > 100 µM
11) N#CC1=C(N)Oc2c(sc3c(F)cccc23)C1c1ccc(F)cc1 (stereo unspecified) = 16.1 µM

----------
Below: a set of entries, each annotated with reported TGI.
tested on: DU-145 prostate; test: NCI tumour cell line growth inhibition, 48 h
ASSAY ENDPOINT: TGI (µM)

1) CCCCCCCCCCCC[n+]1ccc(C(N)=O)cc1 = 17.2
2) COc1ccc(/C=C2\CN(C)CC3C2=NC(=S)NC3c2ccc(OC)cc2)cc1 (stereo unspecified) = 26.4
3) CCOC(=O)C#Cc1c(CC(=O)OCC)nnn1[C@H]1O[C@@H](CO)[C@@H]2OC(C)(C)O[C@@H]21 = 21.8
4) Oc1ccc(N=Nc2ccc(N=Nc3ccccc3)cc2)cc1 = 12.2
5) O=Cc1ccc(O)c2ncccc12 = 32.1
6) CC(C)CCc1c(Cl)nc(Cl)nc1Cl = 31.1
7) COC(=O)c1c(O)ccc2c1c1c(n2-c2ccc(OC)cc2)C(=O)c2ccccc2C1=O = 48.3
8) Cc1nn(-c2nc3ccccc3[nH]2)c2c1C(c1ccc3c(c1)OCO3)CC(=O)N2 (stereo unspecified) = 9.12
9) CC1OC(OC2C(O[C@@H]3C[C@@H]4CC[C@@H]5[C@H](CC[C@]6(C)C7C(C[C@@H]56)O[C@]5(CC[C@@H](C)CO5)[C@H]7C)[C@@]4(C)C[C@H]3O)OC(CO)C(O)C2O)C(O)C(O)C1O (stereo partly specified) = 3.13
10) CSC1C(=O)c2ccccc2/C(=N/Nc2nc3ccccc3s2)C1C (stereo unspecified) = 18.3
11) O=C1C(=O)c2ccccc2C(O)=C1CCCCCCCCC1CCCCC1 = 33.4
12) O=C(CCCCCCC(=O)Nc1ccc2c(c1)/C(=C/c1ccc[nH]1)C(=O)N2)NO = 41.6
13) CCSC(=O)/C=C1\CN(C(=O)OC(C)(C)C)C1C(=O)OC(C)(C)C (stereo unspecified) = 16.3
14) N=C(N)c1ccc(-c2ccc(-c3cccs3)s2)nc1 = 4.04
15) CN(C)CCCNc1ccc2nnn3c4ccc(OC(=O)c5ccc([N+](=O)[O-])cc5)cc4c(=O)c1c23 = 18.3
16) Clc1ccc2c(c1)-c1ccccc1C1=NCCN12 = 4.62
17) O=C1NC(=NC2CCCCC2)C2(CCN(CCCC3(c4ccc(F)cc4)OCCO3)CC2)N1c1ccccc1 = 33.8
